Each entry below lists one item and its recorded inhibition value.
Molecular target: Dual specificity protein kinase CLK3 (Homo sapiens) (UniProt P49761)
Sequence (P49761 whole entry, looked up): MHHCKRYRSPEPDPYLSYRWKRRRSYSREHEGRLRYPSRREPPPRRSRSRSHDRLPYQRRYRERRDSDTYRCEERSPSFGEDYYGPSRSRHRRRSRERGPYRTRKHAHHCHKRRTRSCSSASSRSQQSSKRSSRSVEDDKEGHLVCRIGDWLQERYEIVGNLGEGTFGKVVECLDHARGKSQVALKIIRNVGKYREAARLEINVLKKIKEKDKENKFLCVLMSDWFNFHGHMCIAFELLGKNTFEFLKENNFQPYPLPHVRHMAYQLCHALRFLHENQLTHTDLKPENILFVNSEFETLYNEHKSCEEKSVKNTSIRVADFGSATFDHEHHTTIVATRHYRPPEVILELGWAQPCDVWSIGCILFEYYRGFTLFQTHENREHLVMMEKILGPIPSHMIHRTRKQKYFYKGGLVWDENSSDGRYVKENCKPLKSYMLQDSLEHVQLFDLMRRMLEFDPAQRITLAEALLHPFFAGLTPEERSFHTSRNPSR
Conditions: at 0.1 µM
Description: GSK_PKIS: CLK3 mean inhibition at 0.1 uM [Nanosyn]
observable: inhibition (%)

compound=CS(=O)(=O)CCNCc1ccc(-c2ccc3ncnc(Nc4ccc(OCc5ccccc5)cc4)c3c2)o1 meas_value=0.41
compound=Cc1cc(O)cc(C)c1/C=C/c1cncc(C(N)=O)c1 meas_value=1.21
compound=Cc1cc(O)cc(C)c1/C=C/c1cncc(C(=O)OC(C)(C)C)c1 meas_value=3.45
compound=CS(=O)(=O)Nc1ccc(-c2cc(-c3ccccc3)cc(C(N)=O)c2N)cc1 meas_value=0.2
compound=O=C(O[C@H]1CN[C@H](C#Cc2cc3ncnc(Nc4ccc5c(cnn5Cc5ccccc5)c4)c3s2)C1)N1CCOCC1 meas_value=-0.96
compound=c1ccc(-c2n[nH]cc2-c2ccnc(-c3ccc(OCCn4ccnc4)cc3)c2)nc1 meas_value=3.95
compound=CCn1c(-c2nonc2N)nc2cncc(C(=O)NCCNC)c21 meas_value=-2.71
compound=COc1cc(N2CCN(C(C)C)CC2)ccc1Nc1nc(Nc2cccc3ncccc23)c2cc[nH]c2n1 meas_value=-0.15
compound=c1cnn2ncc(-c3ccnc(NCCCN4CCOCC4)n3)c2c1 meas_value=0.39
compound=CC(C)c1ccc(-c2cc(-c3c[nH]nc3-c3ccccn3)ccn2)cc1 meas_value=0.15
compound=COc1ccc(Nc2ncc(-c3ccccc3)o2)cc1OC meas_value=2
compound=CN(C)CCNC(=O)Nc1ccc(N(C)c2ccnc(Nc3ccc(CS(C)(=O)=O)cc3)n2)cc1 meas_value=2.16
compound=FC(F)(F)CNc1nccc(-c2cnn3ncccc23)n1 meas_value=0.47
compound=CCN1CCC(C(=O)Nc2n[nH]c3nnc(-c4cccc(F)c4F)cc23)CC1 meas_value=1.25
compound="CC1=C(C(=O)Nc2ccc3[nH]ncc3c2)C(c2ccc(F)cc2)N=C(c2ccc(C(F)(F)F)nc2)N1 (stereo not given)" meas_value=1.34
compound=CNC(=O)c1ncccc1Nc1nc(Nc2cc3c(cc2OC)CCCN3C(=O)CN(C)C)nc2[nH]ccc12 meas_value=1.98
compound=COc1cccc(-n2ncc3c(N/N=C/c4ccc(C(=O)NCCN(C)C)cc4)ncnc32)c1 meas_value=5.88
compound=N#Cc1cccc(Nc2ncc(-c3ccccc3)o2)c1 meas_value=1.7
compound=COC(=O)Nc1nc2ccc(Oc3ccc(NC(=O)Nc4cc(C(F)(F)F)ccc4F)cc3)cc2s1 meas_value=0.06
compound=CNC(=O)c1sc(-n2cnc3cc(OC)c(OC)cc32)cc1OCc1ccccc1C(F)(F)F meas_value=0.24
compound=OCCCNc1nccc(-c2c(-c3ccc(F)cc3)nn3cc(C(F)(F)F)ccc23)n1 meas_value=0.35
compound=COc1ccccc1-c1cc(/C=C2\C(=O)Nc3ncc(Br)cc32)cc(Br)c1O meas_value=2.35
compound=CS(=O)(=O)Nc1ccc(-c2ccc3c(NC(=O)C4CC4)n[nH]c3c2)cc1 meas_value=1.51
compound=Cn1c(-c2nonc2N)nc2cnccc21 meas_value=1
compound=Fc1ccc(Nc2nccc(-c3c(-c4ccc(C(F)(F)F)cc4)nn4ncccc34)n2)cc1F meas_value=2.2
compound=CC1(C)CC(n2cnc(-c3ccc(F)cc3)c2-c2ccnc(N)n2)CC(C)(C)N1 meas_value=0.82
compound=COc1c(C(N)=O)cc(-c2ccc(Cl)cc2)cc1-c1ccc(S(N)(=O)=O)cc1 meas_value=0.71
compound=NS(=O)(=O)c1ccc(N/N=C2\C(=O)Nc3cccc(CCc4ccncc4)c32)cc1 meas_value=0.97
compound=COc1ccc(-c2nn3ncccc3c2-c2ccnc(Nc3ccc(F)c(F)c3)n2)cc1 meas_value=2.08
compound=CS(=O)(=O)CCNCc1ccc(-c2ccc3ncnc(Nc4ccc(OCc5cccc(C(F)(F)F)c5)cc4)c3c2)o1 meas_value=1.09
compound=CNC(=O)c1cncc(/C=C/c2ccccc2C)c1 meas_value=1.79
compound=O=C(Nc1n[nH]c2nnc(-c3cccnc3)cc12)C1CC1 meas_value=0.24
compound=CS(=O)(=O)CCNCc1ccoc1-c1ccc2ncnc(Nc3ccc(OCc4ccccc4)cc3)c2c1 meas_value=-0.17
compound=NC(=O)c1ccc2c(-c3ccnc(NCCCO)n3)c(-c3ccc(F)cc3)nn2c1 meas_value=0.97
compound=CN(c1ccc(NC(=O)NCCN2CCOCC2)cc1)c1ccnc(Nc2ccc(CS(C)(=O)=O)cc2)n1 meas_value=0.77

Data origin: ChEMBL document CHEMBL1961873
